# Test system: NCI-H522 lung
# test.method.notes: NCI-60 one-dose screen, 48 h
# condition.notes: 10 µM unless noted
About 83,000 compounds went through this panel and 20% of them were active in at least one assay; those are over-represented in the sample as a whole. Activity calls are given as the source filed them. Rule for the calls: active = growth percent below 10; inactive = the rest.
Entry note: the call must match one of TRUE (active), FALSE (inactive)

- compound: "C[C@@H]1C(=O)N(C[C@@H](Cc2ccccc2)NC(=O)OCc2ccccc2)[C@]1(Cc1ccccc1)C(=O)OCc1ccccc1"
  assigned.class: "FALSE"
- compound: "Cc1cnc(Nc2ccc(OCCN3CCCC3)cc2)nc1NCc1ccco1"
  assigned.class: "FALSE"
- compound: "O=C1Nc2ccccc2/C1=N/N=C/c1ccsc1"
  assigned.class: "FALSE"

How did this test come out for COc1cc2c(c(OC)c1OC)C(=O)/C(=C/c1cc(C)c(O)c(C)c1)S2 ?
FALSE

What was the test verdict on NC(N)=N/N=C(/c1ccccc1)c1ccc(N)cc1 ?
FALSE

Recorded call for Cc1ccc(/C=C(\C#N)n2nnc3cc(Cl)c(Cl)cc32)cc1 ?
FALSE

Could you please tell me the result logged for O=C(Nc1ccccc1Cl)OCCN1CCOCC1 in this assay?
FALSE

What classification did O=C1Nc2ccccc2SC1c1ccccc1Cl (stereo not given) end up with in this test?
FALSE

Hi team, can someone confirm the assay call for Nc1ccc(S(=O)(=O)Nc2ccsc2-c2nc(-c3ccccc3)no2)cc1 ?
FALSE

Dear colleague, could you share the recorded outcome for CCCCCOC(=O)c1ccc(NC(=O)CNCC(C)C)cc1 when you have a moment?
FALSE

Please indicate how the test categorized COc1ccc(Oc2nc(Nc3ccc(N4CCOCC4)nc3)ncc2NC(=O)c2cc(OC)cc(OC)c2)cc1 .
FALSE

I would be grateful if you could indicate the recorded call for CCc1cc(Cc2cc(CC)cc(C(C)(C)C)c2O)c(O)c(C(C)(C)C)c1 .
FALSE

Hi, do you know how C=CC(=O)N[C@@H](Cc1ccc(-c2cc(Cl)cc(Cl)c2)cc1)[C@@H](O)[C@H](O)C(=O)O came out in this test?
FALSE

What was the test verdict on CN(C)c1ccc(/C=N/NC(=O)COc2cc(=O)n(C)c3ccccc23)cc1 ?
FALSE

Please share the test call associated with C[C@@H]1C(=O)N(C[C@H](Cc2ccccc2)NC(=O)OCc2ccccc2)[C@]1(Cc1ccccc1)C(=O)OC(C)(C)C .
FALSE

GET /call?item= O=C1N/C(=N/O)S/C1=C/c1cn(-c2ccccc2)nc1-c1ccccc1 returns the recorded outcome of this test.
FALSE

Record request — test call for Cc1nn(-c2ccccc2)c2c1C(c1ccc([N+](=O)[O-])cc1)C(C#N)=C(N)O2 (stereo not given)
FALSE

Each compound tested received a call. Report the one for Cc1ccc(S(=O)(=O)Nc2sccc2-c2nc(-c3ccccc3)no2)cc1 .
FALSE

Write down the call the test reported for this compound. Item: COc1ccc(C(=O)/C=C/c2cc3c(c(OC)c2)OCC(=O)N3)cc1
FALSE

I'd appreciate the recorded outcome for CNCCNc1nc2ccccc2c2c(=O)c3cc(F)ccc3oc12 from this test.
FALSE

Identify the outcome logged in this assay for the compound shown: CC(/C=N/NC(=O)c1cc(-c2ccco2)[nH]n1)=C\c1ccccc1
FALSE

Dear all, I need the recorded test outcome for CCN(CCO)CC(=O)c1cc(Cl)cc(Cl)c1Cl , thank you.
FALSE

Record lookup: outcome of this test for NS(=O)(=O)c1cnccc1-n1ccc(=O)c(S(N)(=O)=O)c1 ?
TRUE
